Cited source for all entries: the supplement of paper PMC9170038

test system: K4 kissing-loop RNA reporter; test: apparent KD of K4 kissing-loop reporter; higher = weaker reporter binding; conditions: Eterna round: R107; input ligand: arginine 13.2 mM;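 also: bound reporter read as fluorescence of individual clusters on recovered sequencing chips by microscopy, with normalized cluster intensities fitted with a binding model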
// NOT MET strictly below 0.3 µM in apparent KD of K4 kissing-loop reporter; MET otherwise

INPUT SEQUENCE: AAAAUUGCGGUUUUAAGAUCUUUUUGCUUACGAGGACCGGUACGGCCGCCACUCGAGUCAAGUGAUGUUUGAUUUUCUAUUAUUA [JR_ExcTryptoA_Sub015]
ANSWER LABEL: NOT MET
--
INPUT SEQUENCE: AAAUUCUUUUUUUUAUUUAACUUUUCAGAAGGAGCGUGGUAGUACACAGGUAGGUCGCUGAAUUUUGGACUAGUGAUGUUAGUUA [JR_SSArginiA_Sub007]
ANSWER LABEL: NOT MET
--
INPUT SEQUENCE: AACAGCAAUGCGGCCGCCACUUCGAGGUCAGUGAUGUUGACGGAAUUAAAUAAAGAUCCCAAGAGGAGGACCGGGCAGUGCUGUU [whbob_SS_Tryp_B_t25]
ANSWER LABEL: MET
--
INPUT SEQUENCE: AUAGACUUGCAGUGAUGUUGCAAGUGAGACUAGGAUAUCAGGAAGCUGAGAAGGAGUCAUCUCCUUCAGACAUCACUAUGAAGGA [whbob_SS_FMNA__2th180]
ANSWER LABEL: NOT MET
--
INPUT SEQUENCE: CUCGAGUGAUGUUCGAUUAUGUAUACAGAUACCAGUGAAUUUUAACACCCUUGGCAGCUGGUAGAAUCAUUUUAAUUUUAACUAG [JR_SSTheophyA_Sub021]
ANSWER LABEL: NOT MET
--
INPUT SEQUENCE: UUUUUGGAGAAUUAUAGUGAUGUUAUGAAGGAGGAUAUCUGGAGAUGGAGAAGGCCUAGUGGCUCAGCCCUCGAGGGUGGGUGGG [ExFMNA.aC]
ANSWER LABEL: MET
